# Assay explanation: MTS assay to determine cytotoxicity
# Format: cell-based, human
# Experimental setup: human; Huh7 cells, 24 hours
Quantity kind: CC50 at 24 h

1) N#Cc1c(-c2ccccc2)cc(-c2ccccc2)nc1SCC(=O)N1CCOCC1 [KIN400]    > 50 µM

====

# Test system: HCV2a
# Assay explanation: HCV focus-forming assay (FFA) / HCV IF antiviral assay
# Format: cell-based, Hepatitis C virus
# Experimental setup: Huh7 cells
# Method: FIG. 1 is a graph of an HCV focus-forming assay. Huh7 cells were pre-treated with compound KIN400 for 24 hours and infected with HCV2a at an multiplicity of infection (MOI) of 0.5 for 48 hours. HCV protein was detected by immunofluorescent staining with viral-specific serum and foci were normalized to negative control cells that were not drug treated (equal to 1). HCV IF antiviral assay. […]
pIC50: −log10 of the molar value.
Quantity kind: pIC50

1. N#Cc1c(-c2ccccc2)cc(-c2ccccc2)nc1SCC(=O)N1CCOCC1    5.29
